The measured values listed here are drawn from patent US12492215B2.

- target or test system: MNK1 (h) protein kinase (Homo sapiens (Human), UniProt Q9BUB5)
- Sequence (Q9BUB5 whole entry): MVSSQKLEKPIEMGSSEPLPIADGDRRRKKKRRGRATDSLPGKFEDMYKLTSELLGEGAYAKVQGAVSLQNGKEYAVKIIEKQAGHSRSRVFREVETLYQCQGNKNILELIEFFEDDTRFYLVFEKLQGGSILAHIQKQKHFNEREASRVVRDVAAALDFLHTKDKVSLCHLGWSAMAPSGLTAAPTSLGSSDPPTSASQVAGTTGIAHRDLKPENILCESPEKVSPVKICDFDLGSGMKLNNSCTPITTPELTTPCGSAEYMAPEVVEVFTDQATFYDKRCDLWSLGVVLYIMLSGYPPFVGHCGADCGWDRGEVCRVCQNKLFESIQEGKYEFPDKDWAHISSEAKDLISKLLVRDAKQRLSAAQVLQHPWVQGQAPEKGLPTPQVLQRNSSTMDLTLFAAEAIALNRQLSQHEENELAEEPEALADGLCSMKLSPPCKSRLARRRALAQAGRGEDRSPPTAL
- protocol notes: Inhibitory activity against MNK1 protein kinase (Kinase HotSpot Profiling, 33P-ATP)
- Type: biochemical
- particulars: 120 min room temperature
Counter-ions that a name gives are not always drawn.
measurement kind: IC50 (nM)
Please respond with the number in nM and leave the unit unwritten.

Quick check: IC50 of Cc1cc(Nc2ncnn3cc(OCCN4CCCC4)c(C)c23)c(=O)n2c1C(=O)NC21CCCCC1 [Compound 1 (hydrochloride)] ?
54.6

----------
- protocol notes: Pharmacokinetic evaluation in mice
- Format: in vivo, CD-1 mice
- particulars: male, CD-1, mouse, plasma, PO 2 mg/kg vs IV 0.5 mg/kg, read-out: Bioavailability F
Counter-ions that a name gives are not always drawn.
measurement kind: bioavailability
# answer = value followed by unit

Quick check: bioavailability of Cc1cc(Nc2ncnn3cc(OCCN4CCCC4)c(C)c23)c(=O)n2c1C(=O)NC21CCCCC1 [Compound 1 (hydrochloride)] ?
32.5%

Quick check: bioavailability of Cc1cc(Nc2ncnn3cc(OCCN4CCC(F)(F)C4)c(C)c23)c(=O)n2c1C(=O)NC21CCCCC1 [Compound 11] ?
14.2%

----------
- target or test system: MNK2 (h) protein kinase (Homo sapiens (Human), UniProt Q9HBH9)
- Sequence (Q9HBH9 whole entry): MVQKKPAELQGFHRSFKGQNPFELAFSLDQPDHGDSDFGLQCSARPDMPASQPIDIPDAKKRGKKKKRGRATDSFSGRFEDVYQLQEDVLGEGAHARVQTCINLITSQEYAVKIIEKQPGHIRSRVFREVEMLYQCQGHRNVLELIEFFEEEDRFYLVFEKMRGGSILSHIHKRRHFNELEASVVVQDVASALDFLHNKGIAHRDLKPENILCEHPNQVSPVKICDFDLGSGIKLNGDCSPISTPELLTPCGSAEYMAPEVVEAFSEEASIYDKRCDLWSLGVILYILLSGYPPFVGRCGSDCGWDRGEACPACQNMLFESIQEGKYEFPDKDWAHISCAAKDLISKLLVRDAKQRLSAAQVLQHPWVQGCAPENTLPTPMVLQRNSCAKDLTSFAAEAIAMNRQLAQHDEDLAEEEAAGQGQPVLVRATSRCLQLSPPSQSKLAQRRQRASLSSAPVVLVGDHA
- protocol notes: Inhibitory activity against MNK2 protein kinase (KinaseProfiler, 33P-ATP filter-binding)
- Assay type: biochemical
- particulars: myelin basic protein substrate, 40 min room temperature
Structures can show the parent of a compound that is named as a salt.
Please provide measured IC50 for the entries that follow.
Please respond with the number in nM and leave the unit unwritten.

Quick check: IC50 of Cc1cc(Nc2ncnn3cc(OCCN4CCCC4)c(C)c23)c(=O)n2c1C(=O)NC21CCC(F)(F)CC1 [Compound 9 (hydrochloride)] ?
30

Quick check: IC50 of `Cc1cc(Nc2ncnn3cc(OCCN4CCC(F)(F)C4)c(C)c23)c(=O)n2c1C(=O)NC21CCCCC1` ?
28

Quick check: IC50 of Cc1c(OCCN2CCCC2)cn2ncnc(Nc3cc(Cl)c4n(c3=O)C3(CCCCC3)NC4=O)c12 [Compound 6 (hydrochloride)] ?
21

Quick check: IC50 of Cc1cc(Nc2ncnn3cc(OCCN4CCCC4)c(C)c23)c(=O)n2c1C(=O)NC21CCNCC1 [Compound 2 (hydrochloride)] ?
63

Quick check: IC50 of Cc1cc(Nc2ncnn3cc(OCCN4CCCC4)c(C)c23)c(=O)n2c1C(=O)NC21CCCCC1 [Compound 1 (hydrochloride)] ?
22

Quick check: IC50 of Cc1c(OCCN2CCCC2)cn2ncnc(Nc3cc(Cl)c4n(c3=O)C3(CCCC3)NC4=O)c12 [Compound 10 (hydrochloride)] ?
8

Quick check: IC50 of Cc1cc(Nc2ncnn3cc(OCC4CCNC4)c(C)c23)c(=O)n2c1C(=O)NC21CCCCC1 (stereo not shown) [Compound 15 (hydrochloride)] ?
28

Quick check: IC50 of Cc1cc(Nc2ncnn3cc(OCCN4CCCC4)c(C)c23)c(=O)n2c1C(=O)NC21CCN(C)CC1 [Compound 3 (hydrochloride)] ?
39

Quick check: IC50 of Cc1c(OCCN2CCCC2)cn2ncnc(Nc3ccc4n(c3=O)C3(CCCCC3)NC4=O)c12 [Compound 4 (hydrochloride)] ?
25

Quick check: IC50 of `Cc1cc(Nc2ncnn3cc(OC[C@H](C)N4CCCC4)c(C)c23)c(=O)n2c1C(=O)NC21CCCC1` ?
14
